Below is a list of entries, each paired with its recorded self-splicing fitness (ln) value.
- experiment: self-splicing fitness, log relative to wild type (ln ratio); higher = more splicing; Tetrahymena group I intron in knt gene, E. coli kanamycin selection, DiMSum; sequences stand for … in CUCUCU…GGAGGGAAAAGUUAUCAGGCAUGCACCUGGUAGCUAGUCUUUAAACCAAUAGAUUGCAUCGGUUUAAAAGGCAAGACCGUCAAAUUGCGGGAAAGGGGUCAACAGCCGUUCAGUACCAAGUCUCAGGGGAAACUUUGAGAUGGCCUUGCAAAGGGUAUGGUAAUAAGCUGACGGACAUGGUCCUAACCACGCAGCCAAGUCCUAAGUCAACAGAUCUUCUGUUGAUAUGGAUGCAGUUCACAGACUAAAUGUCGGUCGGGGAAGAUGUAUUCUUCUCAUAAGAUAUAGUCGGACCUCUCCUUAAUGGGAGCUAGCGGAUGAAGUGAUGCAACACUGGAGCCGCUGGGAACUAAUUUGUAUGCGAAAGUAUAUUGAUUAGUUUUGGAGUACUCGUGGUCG;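 note: selection with 25 µg/mL kanamycin versus none on LB agar overnight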
- study.conditions: 30 °C

sequence.content: AACGAGCAAUAUUACGGCUC
measured.endpoint: self-splicing fitness (ln)
measurement: -2.49
//
sequence.content: GAGGAGCAAUAUUACGGUCG
measured.endpoint: self-splicing fitness (ln)
measurement: -1.43
//
sequence.content: CGCAAGCAAUAUUACGUUCG
measured.endpoint: self-splicing fitness (ln)
measurement: -1.86
//
sequence.content: CCUAAGCAAUAUUACGUUUU
measured.endpoint: self-splicing fitness (ln)
measurement: -3.89
//
sequence.content: CGCAAGCAAUAUUACGAUGA
measured.endpoint: self-splicing fitness (ln)
measurement: -0.874
//
sequence.content: AGGAAGCAAUAUUACGAUGC
measured.endpoint: self-splicing fitness (ln)
measurement: -2.26

Problem: Output self-splicing fitness (ln) of CAGUAGCAAUAUUACGACUC
Result: -0.076

Problem: Output self-splicing fitness (ln) of GUUCAGCAAUAUUACGCGUU
Result: -0.588

###

- experiment: self-splicing fitness, log relative to wild type (ln ratio); higher = more splicing; Tetrahymena group I intron in knt gene, E. coli kanamycin selection, DiMSum; sequences stand for … in CUCUCU…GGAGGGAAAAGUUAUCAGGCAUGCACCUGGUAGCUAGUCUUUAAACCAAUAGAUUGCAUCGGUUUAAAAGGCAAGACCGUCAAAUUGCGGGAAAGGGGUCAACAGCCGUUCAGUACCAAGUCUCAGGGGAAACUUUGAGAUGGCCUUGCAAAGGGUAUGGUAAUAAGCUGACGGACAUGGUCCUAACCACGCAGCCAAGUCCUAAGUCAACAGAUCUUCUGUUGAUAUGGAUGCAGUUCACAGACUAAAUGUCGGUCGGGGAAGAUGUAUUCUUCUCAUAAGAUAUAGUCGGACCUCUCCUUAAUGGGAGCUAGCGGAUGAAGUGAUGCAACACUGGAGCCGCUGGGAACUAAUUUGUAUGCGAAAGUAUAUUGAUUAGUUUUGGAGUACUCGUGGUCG
- study.conditions: 30 °C
Entry flag: yes (1) if self-splicing fitness (ln) reaches -2; no (0) if it does not.

// below: answered sequences
sequence.content: GUCUAGCAAUAUUACGUUAG
category: no (0)
--
sequence.content: CUUAAGCAAUAUUACGAUAC
category: no (0)
--
sequence.content: GUAUAGCAAUAUUACGAUCU
category: yes (1)
--
sequence.content: UGCAAGCAAUAUUACGAUGG
category: yes (1)
--
sequence.content: CCUGAGCAAUAUUACGCAUU
category: no (0)

Problem: Decide: is the reported value of self-splicing fitness (ln) for GCCCAGCAAUAUUACGUGCA equal to or greater than -2?
Result: yes (1)

Problem: Decide: is the reported value of self-splicing fitness (ln) for CCCUAGCAAUAUUACGGGUU equal to or greater than -2?
Result: no (0)

Problem: Decide: is the reported value of self-splicing fitness (ln) for CUACAGCAAUAUUACGCAUC equal to or greater than -2?
Result: no (0)

Problem: Decide: is the reported value of self-splicing fitness (ln) for AAAUAGCAAUAUUACGAACG equal to or greater than -2?
Result: yes (1)

Problem: Decide: is the reported value of self-splicing fitness (ln) for CGGCAGCAAUAUUACGUCAA equal to or greater than -2?
Result: yes (1)

Problem: Decide: is the reported value of self-splicing fitness (ln) for ACUCAGCAAUAUUACGUGUA equal to or greater than -2?
Result: yes (1)

Problem: Decide: is the reported value of self-splicing fitness (ln) for CACCAGCAAUAUUACGUCCG equal to or greater than -2?
Result: yes (1)

Problem: Decide: is the reported value of self-splicing fitness (ln) for AAAAAGCAAUAUUACGGCAU equal to or greater than -2?
Result: yes (1)

Problem: Decide: is the reported value of self-splicing fitness (ln) for ACACAGCAAUAUUACGGGGG equal to or greater than -2?
Result: no (0)

Problem: Decide: is the reported value of self-splicing fitness (ln) for UCCGAGCAAUAUUACGUUCA equal to or greater than -2?
Result: no (0)

Problem: Decide: is the reported value of self-splicing fitness (ln) for AUAAAGCAAUAUUACGAGCU equal to or greater than -2?
Result: yes (1)

Problem: Decide: is the reported value of self-splicing fitness (ln) for AAGAAGCAAUAUUACGUGCG equal to or greater than -2?
Result: yes (1)

Problem: Decide: is the reported value of self-splicing fitness (ln) for AUGCAGCAAUAUUACGAACU equal to or greater than -2?
Result: yes (1)

Problem: Decide: is the reported value of self-splicing fitness (ln) for GAACAGCAAUAUUACGUGUU equal to or greater than -2?
Result: no (0)

Problem: Decide: is the reported value of self-splicing fitness (ln) for UCUUAGCAAUAUUACGGGUU equal to or greater than -2?
Result: no (0)

Problem: Decide: is the reported value of self-splicing fitness (ln) for UGAGAGCAAUAUUACGCCUA equal to or greater than -2?
Result: yes (1)
